Experimental target: Glucocorticoid receptor (Homo sapiens) (UniProt P04150)
Sequence (P04150 whole entry, looked up): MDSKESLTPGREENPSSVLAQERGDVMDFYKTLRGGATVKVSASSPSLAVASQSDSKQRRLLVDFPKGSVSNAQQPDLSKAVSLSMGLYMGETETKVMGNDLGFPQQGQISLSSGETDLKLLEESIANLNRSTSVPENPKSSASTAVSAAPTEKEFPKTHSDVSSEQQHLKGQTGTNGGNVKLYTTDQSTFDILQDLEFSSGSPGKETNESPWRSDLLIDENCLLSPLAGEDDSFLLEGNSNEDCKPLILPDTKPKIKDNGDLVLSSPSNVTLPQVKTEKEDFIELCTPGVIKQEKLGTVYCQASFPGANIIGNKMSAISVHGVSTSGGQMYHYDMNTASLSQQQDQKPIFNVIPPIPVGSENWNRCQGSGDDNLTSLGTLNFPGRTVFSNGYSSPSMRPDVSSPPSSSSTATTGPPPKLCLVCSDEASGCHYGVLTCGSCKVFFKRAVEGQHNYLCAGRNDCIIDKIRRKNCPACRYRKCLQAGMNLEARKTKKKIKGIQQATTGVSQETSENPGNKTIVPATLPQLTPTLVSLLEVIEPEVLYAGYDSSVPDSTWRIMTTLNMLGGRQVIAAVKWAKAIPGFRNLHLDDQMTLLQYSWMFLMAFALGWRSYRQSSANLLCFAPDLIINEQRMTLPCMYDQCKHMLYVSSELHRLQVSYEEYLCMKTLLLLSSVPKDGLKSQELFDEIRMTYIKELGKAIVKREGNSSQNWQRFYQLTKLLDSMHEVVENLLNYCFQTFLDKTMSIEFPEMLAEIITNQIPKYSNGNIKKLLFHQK
Protocol text: ATG_GR_TRANS: Attagene TRANS-FACTORIAL HepG2 Assay for human Glucocorticoid Receptor (GR) (AID 2282978);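 note: activators score as hits since higher reporter transcript over DMSO is fitted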
Condition label: HepG2 Attagene TRANS GR reporter, mRNA transcription
Inconclusive results are not listed. The source made the active and inactive calls. Rule for the calls: active = hit-call score of the fitted dose curve at least 0.9, where 1 is the maximum; inconclusive = response in the unintended direction; inactive = score below 0.9.
Pick from active, inactive when you respond.

## Input Can you look up the reported call for CN1CCN(C)CC1 for me?
## Output inactive

## Input Moving on to C=C[C@@]1(C)CC(=O)[C@]2(O)[C@@]3(C)[C@@H](O)CCC(C)(C)[C@@H]3[C@H](O)[C@H](OC(C)=O)[C@@]2(C)O1
## Output active

## Input Moving on to CCOC(=O)/C=C\C(=O)OCC
## Output inactive

* * *

Experimental target: Nucleoli Translocation, AR (gene 367) (UniProt P10275)
Sequence (P10275 whole entry, looked up): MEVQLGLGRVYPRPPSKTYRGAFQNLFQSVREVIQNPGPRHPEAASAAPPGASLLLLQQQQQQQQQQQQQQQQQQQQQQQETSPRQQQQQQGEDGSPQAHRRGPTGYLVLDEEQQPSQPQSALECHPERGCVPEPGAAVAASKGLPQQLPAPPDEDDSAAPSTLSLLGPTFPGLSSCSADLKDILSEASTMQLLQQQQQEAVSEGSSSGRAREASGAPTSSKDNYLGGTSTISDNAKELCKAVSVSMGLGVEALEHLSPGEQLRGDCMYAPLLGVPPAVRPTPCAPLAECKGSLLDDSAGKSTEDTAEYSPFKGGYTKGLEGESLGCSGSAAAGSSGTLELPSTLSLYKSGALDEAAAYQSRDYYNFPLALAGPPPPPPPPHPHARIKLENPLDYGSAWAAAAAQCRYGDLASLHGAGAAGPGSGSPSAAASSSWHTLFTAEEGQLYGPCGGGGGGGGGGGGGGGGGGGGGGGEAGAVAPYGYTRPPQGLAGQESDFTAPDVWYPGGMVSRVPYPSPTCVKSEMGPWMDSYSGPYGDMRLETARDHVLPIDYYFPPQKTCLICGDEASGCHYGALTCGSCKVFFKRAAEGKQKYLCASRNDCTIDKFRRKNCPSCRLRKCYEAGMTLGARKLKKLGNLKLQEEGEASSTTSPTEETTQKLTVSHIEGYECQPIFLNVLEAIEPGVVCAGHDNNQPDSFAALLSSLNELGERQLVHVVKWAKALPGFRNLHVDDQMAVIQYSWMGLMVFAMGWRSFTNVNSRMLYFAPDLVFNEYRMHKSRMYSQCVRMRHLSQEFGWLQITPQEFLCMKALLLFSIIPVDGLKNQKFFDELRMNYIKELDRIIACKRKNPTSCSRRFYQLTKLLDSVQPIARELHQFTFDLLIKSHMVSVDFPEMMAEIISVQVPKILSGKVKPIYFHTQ
Protocol text: UPITT_HCI_U2OS_AR_TIF2_Nucleoli_Antagonist: University of Pittsburgh U2OS Androgen Receptor-Transcriptional Intermediary Factor 2 (AR-TIF2) Antagonism High Content Imaging Assay for Nucleoli Translocation (AID 2283997)
Records with an inconclusive call do not appear. Activity calls are given as the source filed them. Rule for the calls: active = hit-call score of the fitted dose curve at least 0.9, where 1 is the maximum; inconclusive = response in the unintended direction; inactive = score below 0.9.
Test readout: AC50

Oc1ccc(-c2ccccc2)c(Cl)c1 | 13.8 µM (active)
CCCCCC[C@@H](O)C/C=C\CCCCCCCC(=O)OCC(O)CO (stereo partly specified) | inactive
C=C1C[C@H]2[C@@H]3C=C(C)C4=CC(=O)CC[C@]4(C)[C@H]3CC[C@]2(C)[C@@]1(OC(C)=O)C(C)=O | 0.0947 µM (active)
O=C(O)c1ccc2c(c1)C(=O)OC2=O | inactive
Cc1ccc(C)c(OCCCC(C)(C)C(=O)O)c1 | inactive

Give AC50 for all compounds that follow.
1. COc1cc(O)c(C(=O)c2ccccc2)cc1S(=O)(=O)O
2. CCCCC(CC)COC(=O)/C=C/c1ccc(OC)cc1 (stereo unspecified)
3. CN(C)Cc1cc(CN(C)C)c(O)c(CN(C)C)c1
4. CCc1cccc(C)c1N
5. c1ccc2c(c1)[nH]c1ccccc12
6. COc1ccc(C(=O)c2ccccc2)c(O)c1

## Output
1. inactive
2. inactive
3. inactive
4. inactive
5. 8.38 µM (active)
6. 50 µM (active)

* * *

Experimental target: Hepatocyte nuclear factor 3-beta (Homo sapiens) (UniProt Q9Y261)
Sequence (Q9Y261 whole entry, looked up): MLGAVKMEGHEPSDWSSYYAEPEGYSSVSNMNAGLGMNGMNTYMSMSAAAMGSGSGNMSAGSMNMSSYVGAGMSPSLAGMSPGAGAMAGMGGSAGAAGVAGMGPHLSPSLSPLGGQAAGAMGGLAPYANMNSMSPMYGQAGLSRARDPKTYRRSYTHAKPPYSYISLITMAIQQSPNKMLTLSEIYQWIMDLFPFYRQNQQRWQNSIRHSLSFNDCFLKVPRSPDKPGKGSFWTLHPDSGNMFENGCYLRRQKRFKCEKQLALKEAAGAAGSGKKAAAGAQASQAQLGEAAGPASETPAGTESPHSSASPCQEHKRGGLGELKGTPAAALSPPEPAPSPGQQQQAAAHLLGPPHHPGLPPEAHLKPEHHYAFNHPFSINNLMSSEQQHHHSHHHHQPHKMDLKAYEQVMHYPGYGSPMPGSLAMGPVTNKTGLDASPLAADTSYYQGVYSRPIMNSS
Protocol text: ATG_FoxA2_CIS: Attagene CIS-FACTORIAL HepG2 Assay for human Forkhead box A2 (FOXA2) (AID 2282942)
Condition label: HepG2 cis-reporter transcription factor activity, 24 h; actives raise or lower the signal
The source made the active and inactive calls. The calls were made as follows: active = hit-call score of the fitted dose curve at least 0.9, where 1 is the maximum; inactive = score below 0.9.
Test readout: outcome

O=C(O)C(F)(F)C(F)(F)C(F)(F)C(F)(F)C(=O)O | inactive
C[Si]1(C)O[Si](C)(C)O[Si](C)(C)O[Si](C)(C)O[Si](C)(C)O1 | inactive
CCOC(=O)c1ccc(C)cc1 | inactive
CCOB(OCC)OCC | inactive
C=C(C)C1CC=C(C)C(OC(C)=O)C1 (stereo unspecified) | inactive

Give outcome for all molecules that follow.
1. C/C=C/C=C/CCCCCCCO
2. CC1=NN(c2ccc(S(=O)(=O)O)cc2)C(=O)C1N=Nc1ccccc1 (stereo unspecified)
3. C=Cc1ccc(OC(C)=O)cc1
4. Cn1cccc1
5. CCC1COC(=O)O1 (stereo unspecified)
6. CCC(C)C(=O)OC (stereo unspecified)

## Output
inactive
inactive
inactive
inactive
inactive
inactive

Give outcome for all molecules that follow.
1. CCOC(=O)CC(=O)c1ccccc1
2. O=C(O)c1ccc2c(c1)C(=O)OC2=O
3. CCCCCCCCCC(C)=O
4. C=CCCCCCCCCC=O
5. Nc1cccc(N)n1

## Output
1. inactive
2. inactive
3. inactive
4. inactive
5. inactive

* * *

Protocol text: ATG_AP_1_CIS: Attagene CIS-FACTORIAL HepG2 Assay for human Activator Protein 1 (AP-1) (AID 2282931)
Condition label: HepG2 Attagene cis-factorial AP-1 reporter mRNA; actives raise or lower the signal
The source made the active and inactive calls. Rule for the calls: active = hit-call score of the fitted dose curve at least 0.9, where 1 is the maximum; inactive = score below 0.9.
Pick from y for active, n for inactive when you respond.

C=CC(=O)OCCCCCCOC(=O)C=C | n
c1ccc(Nc2cccc3ccccc23)cc1 | y
CC(=O)OC1CCCCC1C(C)(C)C (stereo not given) | n
CCCCCCCCCCCC(C)=O | y
Nc1ccc(Cl)c(N)c1 | n

## Input Can you look up the reported call for CCN1CCCC1=O for me?
## Output n

## Input Moving on to C=CC(=O)OCC(C)OCC(C)OCC(C)OC(=O)C=C (stereo not given)
## Output y

## Input Moving on to COc1ccc(C(=O)/C(Br)=C\C(=O)O)cc1
## Output y

## Input Moving on to CC(=O)c1ccc(S(=O)(=O)NC(=O)NC2CCCCC2)cc1
## Output n

## Input Moving on to CCCCOC(=O)CCC(C)=O
## Output n

## Input Moving on to C1CCSC1
## Output n

## Input Moving on to CCCC=C(C=O)CC
## Output n

## Input Moving on to CCc1cccc(C)c1N(C(=O)CS(=O)(=O)O)C(C)COC (stereo not given)
## Output n

## Input Moving on to O=C1CCCN1C1CCCCC1
## Output n

## Input Moving on to C/C=C/C=C/CCCCCCCO
## Output y

* * *

Protocol text: ATG_AP_1_CIS: Attagene CIS-FACTORIAL HepG2 Assay for human Activator Protein 1 (AP-1) (AID 2282931)
Condition label: HepG2 Attagene cis-factorial AP-1 reporter mRNA; actives raise or lower the signal
Activity calls are given as the source filed them. Rule for the calls: active = hit-call score of the fitted dose curve at least 0.9, where 1 is the maximum; inactive = score below 0.9.
Pick from YES (active), NO (inactive) when you respond.

Solved cases (5 shown):
CCCCC/C=C\C/C=C\CCCCCCCC(=O)O | YES
CC(C)COC(=O)CC(C(=O)OCC(C)C)S(=O)(=O)O (stereo not given) | NO
C=Cc1ccc(OC(C)=O)cc1 | NO
CC(C)OC(=O)c1ccccc1 | NO
COC(OC)(C(=O)c1ccccc1)c1ccccc1 | NO

## Input Can you look up the reported call for O=C(O)/C=C/c1ccccc1 for me?
## Output NO

## Input Moving on to OCCCc1ccccc1
## Output NO

## Input Moving on to O=C(O)CCCC(=O)O
## Output NO

## Input Moving on to CC(C)CCOCc1ccccc1
## Output NO

## Input Moving on to CCOC(=O)c1ccccc1C
## Output NO

## Input Moving on to CC(C)CCCCCOC(=O)CS
## Output NO

* * *

Read-out: Interleukin 17F (IL17F), IL17F (gene 112744)
Protocol text: BSK_BT_xIL17F: BioMAP Diversity Plus: BT Assay for Interleukin 17F (IL17F) Biomarker Activity (AID 2284243)
Condition label: primary human B cells with PBMC
The source made the active and inactive calls. The calls were made as follows: active = hit-call score of the fitted dose curve at least 0.9, where 1 is the maximum; inactive = score below 0.9.
Pick from T = active, F = inactive when you respond.

CC(C)CCCCCOC(=O)CS | F

## Input Can you look up the reported call for O=C(Cl)c1c(Cl)c(Cl)c(C(=O)Cl)c(Cl)c1Cl for me?
## Output F

## Input Moving on to CCCCCCCO
## Output F

* * *

Protocol text: ATG_BRE_CIS: Attagene CIS-FACTORIAL HepG2 Assay for human Bone Morphogenetic Protein (BMP) Response Element (BRE) (AID 2282933)
Condition label: HepG2 BMP response element reporter, Attagene transcription factor profiling; actives raise or lower the signal
Calls of active or inactive are those of the source. The calls were made as follows: active = hit-call score of the fitted dose curve at least 0.9, where 1 is the maximum; inactive = score below 0.9.
Pick from active, inactive when you respond.

Solved cases (5 shown):
CCNc1nc(NC(C)(C)C)nc(OC)n1 | inactive
O=c1c(O)c(-c2ccc(O)cc2O)oc2cc(O)cc(O)c12 | active
CCCCCCCCCC(C)=O | inactive
CCc1cccc(C)c1N | inactive
Nc1nc(N)nc(-c2ccccc2)n1 | inactive

## Input Can you look up the reported call for O=C1CCCCC1C1CCCCC1 (stereo not drawn) for me?
## Output inactive

## Input Moving on to CCCCNS(=O)(=O)c1ccc(C)cc1
## Output inactive

## Input Moving on to CN(C)Cc1cc(CN(C)C)c(O)c(CN(C)C)c1
## Output inactive

* * *

Protocol text: ATG_Oct_MLP_CIS: Attagene CIS-FACTORIAL HepG2 Assay for human Octamer-Binding Transcription Factor (Oct) (AID 2282993)
Condition label: HepG2 Attagene cis-factorial Oct reporter, mRNA; actives raise or lower the signal
Activity calls are given as the source filed them. How the source made its calls: active means hit-call score of the fitted dose curve at least 0.9, where 1 is the maximum; inactive means score below 0.9.
Pick from true (active), false (inactive) when you respond.

CCCCCC(=O)OCC | false
CCCCCCCCCCCCCC(=O)OC(C)C | false
[Cl][Sc]([Cl])[Cl] | false
c1ccc2c(c1)[nH]c1ccccc12 | false
Cc1c(O)cccc1O | false

## Input Can you look up the reported call for CC(=O)OC/C=C(/C)CCC=C(C)C for me?
## Output false

## Input Moving on to CC(C)(C)C1CCC(=O)CC1
## Output true

## Input Moving on to CN(C)c1ccc2nc3ccc(=[N+](C)C)cc-3sc2c1
## Output false

## Input Moving on to CC(C)OC(=O)c1ccccc1
## Output false

## Input Moving on to CC=C(C)C(C)=O
## Output false

## Input Moving on to [Cl][Eu]([Cl])[Cl]
## Output false

## Input Moving on to Nc1ccc(C(=O)OCCCOC(=O)c2ccc(N)cc2)cc1
## Output false

## Input Moving on to NC(=O)Nc1ccccc1
## Output false

## Input Moving on to CC(CC(C)C)=NO
## Output false

## Input Moving on to Cc1ccc([N+](=O)[O-])cc1N
## Output false

## Input Moving on to CCC(C)c1ccccc1 (stereo unspecified)
## Output false
